These data points were gathered from patent US20240209076A1.

molecular target: recombinant human IL-6 (human, UniProt P05231 30-212); assay: SPR, IL-6 on CM5 chip, Fab lysate, 25 C
Sequence (P05231 30-212 limits assumed): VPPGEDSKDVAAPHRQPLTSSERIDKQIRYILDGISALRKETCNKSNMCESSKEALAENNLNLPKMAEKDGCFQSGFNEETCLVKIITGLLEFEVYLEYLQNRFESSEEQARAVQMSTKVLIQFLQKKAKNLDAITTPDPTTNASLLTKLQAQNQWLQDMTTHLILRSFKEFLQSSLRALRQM
Please respond with TRUE when measured koff is strictly beneath 0.004 s⁻¹, and with FALSE in all other cases.

Please determine if anti-IL-6 Fab, heavy chain L100K (Fab, V domains shown) VH: EVQLVESGGGLVQPGGSLRLSCAASGFTFSPFAMSWVRQAPGKGLEWVAKISPGGSWTYYSDTVTGRFTFSLDTSKSTAYLQMNSLRAEDTAVYYCARQKWGYYALDIWGQGTLVTVSS VL: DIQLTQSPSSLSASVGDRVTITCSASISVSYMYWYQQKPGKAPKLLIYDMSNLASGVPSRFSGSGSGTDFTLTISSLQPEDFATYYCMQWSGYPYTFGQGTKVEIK is below 0.004 s⁻¹ in terms of koff.
TRUE

API: query returns whether the binder falls strictly under 0.004 s⁻¹ in koff. Query: anti-IL-6 Fab, light chain T96L (Fab, V domains shown, see m39) VH: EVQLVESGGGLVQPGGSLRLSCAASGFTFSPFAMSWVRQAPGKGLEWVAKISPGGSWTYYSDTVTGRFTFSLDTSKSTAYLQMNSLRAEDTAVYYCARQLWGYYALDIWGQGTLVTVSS VL: DIQLTQSPSSLSASVGDRVTITCSASISVSYMYWYQQKPGKAPKLLIYDMSNLASGVPSRFSGSGSGTDFTLTISSLQPEDFATYYCMQWSGYPYLFGQGTKVEIK
FALSE

Bench note: check whether anti-IL-6 Fab, light chain S51D (Fab, V domains shown, see m39) VH: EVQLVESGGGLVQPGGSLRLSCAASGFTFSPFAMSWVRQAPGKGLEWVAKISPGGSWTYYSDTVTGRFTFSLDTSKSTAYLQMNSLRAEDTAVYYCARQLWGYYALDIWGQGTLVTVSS VL: DIQLTQSPSSLSASVGDRVTITCSASISVSYMYWYQQKPGKAPKLLIYDMDNLASGVPSRFSGSGSGTDFTLTISSLQPEDFATYYCMQWSGYPYTFGQGTKVEIK shows koff below 0.004 s⁻¹
FALSE
